TARGET_OR_SYSTEM: IκB-α kinase
TEST_NAME: IκB-α kinase inhibitory activity, in vitro kinase assay
Format: biochemical
MEASURE_NAME: IC50

COMPOUND: CC[C@H](CO)Nc1nc(N(C)Cc2ccc(O)c(O)c2)c2nnn(C(C)C)c2n1
VALUE_OBSERVED: > 100 µM

COMPOUND: CC(C)[C@H](CO)Nc1nc(NCc2ccc(Cl)c(N)c2N)c2nnn(C(C)C)c2n1
VALUE_OBSERVED: > 100 µM

COMPOUND: Cn1nnc2c(NCc3cccc(Cl)c3O)nc(NCCO)nc21
VALUE_OBSERVED: > 100 µM

COMPOUND: CC(C)[C@H](CO)Nc1nc(NCc2ccccc2)c2nnn(C(C)C)c2n1
VALUE_OBSERVED: 50 µM

COMPOUND: CC(C)n1nnc2c(Nc3cccc(Cl)c3)nc(NC3CCCCC3N)nc21 (stereo not shown)
VALUE_OBSERVED: > 100 µM

COMPOUND: CC(C)n1nnc2c(NCc3ccccc3)nc(NCCCN)nc21
VALUE_OBSERVED: > 100 µM

COMPOUND: Cn1nnc2c(Nc3ccc(Br)cc3)nc(NCCO)nc21
VALUE_OBSERVED: > 100 µM

COMPOUND: CC(C)n1nnc2c(NCc3ccccc3)nc(NCCN)nc21
VALUE_OBSERVED: > 100 µM

COMPOUND: CCC(CO)Nc1nc(NC(CO)c2ccccc2)c2nnn(C(C)C)c2n1 (stereo not shown)
VALUE_OBSERVED: > 100 µM

COMPOUND: CC(C)[C@H](CO)Nc1nc(N(C)CCc2ccc(O)c(O)c2)c2nnn(C(C)C)c2n1
VALUE_OBSERVED: > 100 µM

COMPOUND: CC[C@H](CO)Nc1nc(Nc2ccc(N)c(Cl)c2)c2nnn(C(C)C)c2n1
VALUE_OBSERVED: > 100 µM

COMPOUND: CC[C@H](CO)Nc1nc(NCc2c(N)cccc2Cl)c2nnn(C(C)C)c2n1
VALUE_OBSERVED: > 100 µM

COMPOUND: CC(C)n1nnc2c(Nc3cccc(Cl)c3)nc(N(CCO)CCO)nc21
VALUE_OBSERVED: > 100 µM

COMPOUND: CC[C@H](CO)Nc1nc(NCc2ccccc2O)c2nnn(C(C)C)c2n1
VALUE_OBSERVED: 80 µM

COMPOUND: CC(C)[C@H](CO)Nc1nc(Nc2ccc(Cl)cc2)c2nnn(C(C)C)c2n1
VALUE_OBSERVED: 90 µM

COMPOUND: CC(=O)c1cccc(CNc2nc(NCCO)nc3c2nnn3C)c1
VALUE_OBSERVED: > 100 µM

COMPOUND: CC[C@H](CO)Nc1nc(NCc2cccc(OC)c2O)c2nnn(C(C)C)c2n1
VALUE_OBSERVED: 75 µM

COMPOUND: CC(=O)Oc1ccccc1CNc1nc(NCCO)nc2c1nnn2C
VALUE_OBSERVED: 40 µM

COMPOUND: Cn1nnc2c(NC(CO)c3ccccc3)nc(NCCO)nc21 (racemic)
VALUE_OBSERVED: > 100 µM

COMPOUND: CC(C)[C@H](CO)Nc1nc(Nc2ccc(Cl)c(C(=O)O)c2)c2nnn(C(C)C)c2n1
VALUE_OBSERVED: 80 µM

COMPOUND: CC[C@H](CO)Nc1nc(Nc2ccc(Cl)c(C(=O)O)c2)c2nnn(C(C)C)c2n1
VALUE_OBSERVED: > 100 µM

COMPOUND: Cn1nnc2c(NCc3ccccc3O)nc(NCCO)nc21
VALUE_OBSERVED: 45 µM

COMPOUND: CC(C)[C@H](CO)Nc1nc(Nc2ccc(O)c(C(=O)O)c2)c2nnn(C(C)C)c2n1
VALUE_OBSERVED: > 100 µM

COMPOUND: CC(C)[C@H](CO)Nc1nc(NCc2ccccc2O)c2nnn(C(C)C)c2n1
VALUE_OBSERVED: > 100 µM

COMPOUND: CC(C)[C@H](CO)Nc1nc(NCc2ccc(Cl)c(O)c2O)c2nnn(C(C)C)c2n1
VALUE_OBSERVED: > 100 µM

COMPOUND: Cn1nnc2c(NCc3ccc(O)c(O)c3)nc(NCCO)nc21
VALUE_OBSERVED: > 100 µM

COMPOUND: CC(C)[C@H](CO)Nc1nc(Nc2ccc(Br)cc2)c2nnn(C(C)C)c2n1
VALUE_OBSERVED: > 100 µM

COMPOUND: Cn1nnc2c(Nc3cccc(Cl)c3)nc(NCCO)nc21
VALUE_OBSERVED: > 100 µM

COMPOUND: CC[C@H](CO)Nc1nc(NCc2ccc(OC)c(O)c2O)c2nnn(C(C)C)c2n1
VALUE_OBSERVED: > 100 µM

COMPOUND: CC[C@H](CO)Nc1nc(N(C)CCc2ccc(O)c(O)c2)c2nnn(C(C)C)c2n1
VALUE_OBSERVED: > 100 µM

COMPOUND: COc1cccc(CNc2nc(NCCO)nc3c2nnn3C)c1O
VALUE_OBSERVED: > 100 µM

COMPOUND: Cn1nnc2c(NCc3ccccc3)nc(NCCCN)nc21
VALUE_OBSERVED: > 100 µM

COMPOUND: CC(C)[C@H](CO)Nc1nc(NCc2cc(O)c(Cl)cc2O)c2nnn(C(C)C)c2n1
VALUE_OBSERVED: > 100 µM

COMPOUND: Cn1nnc2c(Nc3ccc(Cl)c(N)c3)nc(NCCO)nc21
VALUE_OBSERVED: > 100 µM

COMPOUND: CC(C)n1nnc2c(NCc3ccccc3)nc(N(CCO)CCO)nc21
VALUE_OBSERVED: > 100 µM

COMPOUND: CC(C)[C@H](CO)Nc1nc(NCc2ccccc2)c2nnn(C)c2n1
VALUE_OBSERVED: > 100 µM

COMPOUND: CC(=O)Oc1cccc(CNc2nc(N[C@@H](CO)C(C)C)nc3c2nnn3C(C)C)c1
VALUE_OBSERVED: > 100 µM

###

TARGET_OR_SYSTEM: p34^cdc2/cyclin B (CDC2) (Homo sapiens)
Sequence (P06493 whole entry, species assumed): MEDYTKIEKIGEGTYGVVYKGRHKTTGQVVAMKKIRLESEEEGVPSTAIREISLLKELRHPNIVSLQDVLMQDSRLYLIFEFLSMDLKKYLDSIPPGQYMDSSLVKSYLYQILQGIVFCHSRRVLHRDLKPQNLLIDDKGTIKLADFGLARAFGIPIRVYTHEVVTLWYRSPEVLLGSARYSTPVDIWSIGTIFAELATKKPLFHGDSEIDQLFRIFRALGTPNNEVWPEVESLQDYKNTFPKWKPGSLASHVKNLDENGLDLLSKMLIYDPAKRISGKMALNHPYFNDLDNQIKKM
Sequence (P14635 whole entry partner, species assumed): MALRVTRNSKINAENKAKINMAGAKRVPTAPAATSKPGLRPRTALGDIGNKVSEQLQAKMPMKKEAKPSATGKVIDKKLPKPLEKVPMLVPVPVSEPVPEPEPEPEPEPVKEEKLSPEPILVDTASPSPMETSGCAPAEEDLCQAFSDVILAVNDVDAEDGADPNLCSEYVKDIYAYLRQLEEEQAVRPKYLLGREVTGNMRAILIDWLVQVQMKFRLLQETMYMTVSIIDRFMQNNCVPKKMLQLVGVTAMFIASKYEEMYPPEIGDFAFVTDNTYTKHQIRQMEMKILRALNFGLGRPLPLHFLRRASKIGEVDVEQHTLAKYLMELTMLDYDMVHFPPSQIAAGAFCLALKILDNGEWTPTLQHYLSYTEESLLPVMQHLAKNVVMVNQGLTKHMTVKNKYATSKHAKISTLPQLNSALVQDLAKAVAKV
TEST_NAME: CDK inhibition assay, p34cdc2/cyclin B kinase, histone H1 phosphorylation
Each entry below lists one item and its recorded IC50 value.

SMILES_CODE: CC[C@H](CO)Nc1nc(Nc2ccc(Cl)cc2)c2nnn(C(C)C)c2n1
TARGET_OR_SYSTEM: p34^cdc2/cyclin B (CDC2) (Homo sapiens)
U: µM
IC50: 27
--
SMILES_CODE: CC[C@H](CO)Nc1nc(NCc2cccc(C(C)=O)c2)c2nnn(C(C)C)c2n1
TARGET_OR_SYSTEM: p34^cdc2/cyclin B (CDC2) (Homo sapiens)
U: µM
IC50: 58
--
SMILES_CODE: CC[C@H](CO)Nc1nc(NCc2cccc(OC)c2O)c2nnn(C(C)C)c2n1
TARGET_OR_SYSTEM: p34^cdc2/cyclin B (CDC2) (Homo sapiens)
U: µM
IC50: 15

###

TARGET_OR_SYSTEM: IκB-α kinase
TEST_NAME: IκB-α kinase inhibitory activity, in vitro kinase assay
Assay type: biochemical
pIC50: −log10 of the molar value.
Each entry below lists one item and its recorded pIC50 value.

MOLECULE: CC(C)n1nnc2c(Nc3cccc(Cl)c3)nc(NCCCN)nc21
pIC50: < 4.00
//
MOLECULE: Cn1nnc2c(NCc3ccccc3)nc(NC3CCCCC3N)nc21 (centres unmarked)
pIC50: 4.15
//
MOLECULE: CC(=O)Oc1cccc(CNc2nc(NCCO)nc3c2nnn3C)c1
pIC50: 4.30
//
MOLECULE: Cn1nnc2c(NCc3c(O)cc(Cl)cc3O)nc(NCCO)nc21
pIC50: < 4.00
//
MOLECULE: Cn1nnc2c(NCc3ccc(Cl)c(N)c3N)nc(NCCO)nc21
pIC50: < 4.00
//
MOLECULE: CC(C)n1nnc2c(Nc3cccc(Cl)c3)nc(NCCO)nc21
pIC50: < 4.00
//
MOLECULE: CC(C)[C@H](CO)Nc1nc(NC(CO)c2ccccc2)c2nnn(C(C)C)c2n1 (mixture of isomers)
pIC50: < 4.00
//
MOLECULE: CC(=O)c1ccccc1CNc1nc(NCCO)nc2c1nnn2C
pIC50: < 4.00
//
MOLECULE: CC(C)n1nnc2c(NCc3ccccc3)nc(NC3CCC(N)CC3)nc21 (centres unmarked)
pIC50: 4.32
//
MOLECULE: CC[C@H](CO)Nc1nc(Nc2cc(N)cc(Cl)c2)c2nnn(C(C)C)c2n1
pIC50: 4.12
//
MOLECULE: Cn1nnc2c(NCc3ccccc3)nc(NCCO)nc21
pIC50: < 4.00
//
MOLECULE: CC(C)n1nnc2c(NCc3ccccc3)nc(NCCO)nc21
pIC50: < 4.00
//
MOLECULE: CC(C)[C@H](CO)Nc1nc(NCc2c(N)cccc2Cl)c2nnn(C(C)C)c2n1
pIC50: < 4.00
//
MOLECULE: CC[C@H](CO)Nc1nc(NCc2ccc(Cl)c(N)c2)c2nnn(C(C)C)c2n1
pIC50: < 4.00
